Tested on: CCRIS mutagenicity, Ames/micronucleus/aberration tests
Assay: CCRIS mutagenicity studies
Details: Test System: AMES SALMONELLA TYPHIMURIUM; Strain/Indicator: TA98; Metabolic Activation: RAT, LIVER, S-9, AROCLOR 1254; Method: STANDARD PLATE
Calls of active or inactive are those of the source. The rule behind the calls is not given here.
Readout kind: mutagenic call

Compound	Target desc	Observed measurement
Clc1ccncc1	CCRIS mutagenicity, Ames/micronucleus/aberration tests	inactive; negative
CC(=O)c1ccc(N=O)cc1	CCRIS mutagenicity, Ames/micronucleus/aberration tests	active; positive
CN(C)CCO	CCRIS mutagenicity, Ames/micronucleus/aberration tests	inactive; negative
ClCc1ccncc1	CCRIS mutagenicity, Ames/micronucleus/aberration tests	inactive; negative
O=[N+]([O-])c1cccc2c1[nH]c1ccccc12	CCRIS mutagenicity, Ames/micronucleus/aberration tests	active; positive

Would you mind telling me what mutagenic call value was observed for CC(=O)O[C@@H]1[C@@H](O)[C@H](O[C@H]2[C@H](OC(=O)[C@H]3CC[C@@H]4[C@H](C3)O[C@@]3(C[C@H](OC(=O)/C=C/c5ccccc5)[C@H](C)CO3)[C@]43CO3)O[C@H](C)[C@@H](O)[C@@H]2OC(C)=O)O[C@H](C)[C@H]1O ? inactive; negative

Using the record for Oc1cccc(Cl)c1 , report its mutagenic call. active; positive

// lookup mutagenic call for CC(=O)c1c(O)cc(O)c2c1C(=O)c1cc(O)cc(O)c1C2=O inactive; negative

Give the measured mutagenic call of Cc1cc2c(c3ccc4ccccc4c13)CCC2=O . active; positive

====

Test system: CCRIS mutagenicity, Ames/micronucleus/aberration tests
Assay: CCRIS mutagenicity studies
Conditions: Test System: AMES SALMONELLA TYPHIMURIUM; Strain/Indicator: TA98; Metabolic Activation: NONE; Method: STANDARD PLATE
Activity calls are given as the source filed them. The rule behind the calls is not given here.
Readout kind: mutagenic call

Compound	mutagenic call
COC(=O)Nc1nc2ccc(O)cc2[nH]1	inactive; negative
Nc1ccc2cc(S(=O)(=O)O)c(N=Nc3ccc(N=Nc4ccccc4)cc3OCCO)c(O)c2c1	inactive; negative
c1cc2c3c(c1)=C1OC1C=3Cc1cc3ccccc3cc1-2 (stereo not drawn)	active; positive
CC(=O)c1cc2c(cc1C)C(C)(C)C(C)CC2(C)C (stereo not drawn)	inactive; negative
O=C([O-])c1cccnc1Nc1cccc(C(F)(F)F)c1.O=C([O-])c1cccnc1Nc1cccc(C(F)(F)F)c1.[Cu+2]	inactive; negative
CCC(C)OS(C)(=O)=O (stereo not drawn)	active; positive
Cc1cc(C)c(N)c(C)c1N	inactive; negative
CN1CCN(c2ccc3nc(-c4ccc5nc(-c6ccc(O)cc6)[nH]c5c4)[nH]c3c2)CC1	inactive; negative

// lookup mutagenic call for O=c1oc2cc([N+](=O)[O-])ccc2c2ccccc12 active; positive

What value of mutagenic call has been recorded for this entry: O=Nc1ccc2ccccc2c1 active; positive

Name the reported mutagenic call value associated with the compound N#Cc1cccc(/C=C/c2ccc([N+](=O)[O-])cc2)c1 active; positive

# mutagenic call lookup, item BrCc1ccc(Br)cc1 inactive; negative

Please report the recorded mutagenic call for NCCCC[C@H](N[C@@H](CCc1ccccc1)C(=O)O)C(=O)N1CCC[C@H]1C(=O)O . inactive; negative

Record request: mutagenic call value, item c1ccc(C2CO2)cc1 (stereo not drawn) inactive; negative

// mutagenic call lookup, key: CS(=O)(=O)c1ccc(Cl)cc1 inactive; negative

mutagenic call for CCS(=O)(=O)n1ncc(Cl)c(Cl)c1=O ? inactive; negative

Give the measured mutagenic call of C/C(=C(/OCCOc1ccc(Cl)cc1)c1ccc(Cl)cc1Cl)n1ccnc1 . inactive; negative

For the compound COc1cc2c(c3oc(=O)c4c(c13)CCC4=O)[C@@H]1C=CO[C@@H]1O2 , what mutagenic call is on record? active; positive

====

Test system: CCRIS mutagenicity, Ames/micronucleus/aberration tests
Assay: CCRIS mutagenicity studies
Conditions: Test System: MOUSE LYMPHOMA; Strain/Indicator: L5178Y (TK+/TK-); Metabolic Activation: NONE; Method: SUSPENSION/PLATE
Active and inactive are the calls of the source. The rule behind the calls is not given here.
Valid outcomes are listed here; reply with one: active, inactive

Worked examples, 5 molecules total:
Molecule	Classification
COc1cc([C@@H]2c3cc4c(cc3[C@H](O)[C@H]3COC(=O)[C@H]23)OCO4)cc(OC)c1OC	inactive
CC(C)CON=O	active
O=c1c(O)c(O)c1=O	inactive
CCO[Si](OCC)(OCC)OCC	inactive
Nc1ccc2cc3ccccc3cc2c1	inactive

Answer briefly: the call reported for C=COC(C)=O in this assay. active

Call for entry N=C1C=CC(=C(c2ccc(N)cc2)c2ccc(N)cc2)C=C1 : active

I'd appreciate the recorded outcome for COc1ccc(C(=O)c2ccccc2)c(O)c1 from this test. inactive

Given Nc1nc(Cl)cc(Cl)n1 , state the outcome it received in this test. active

Outcome logged for CCN(CC)C(=S)SSC(=S)N(CC)CC in this assay: active

====

Tested on: CCRIS mutagenicity, Ames/micronucleus/aberration tests
Test: CCRIS mutagenicity studies
Settings: Test System: AMES SALMONELLA TYPHIMURIUM; Strain/Indicator: TA100; Metabolic Activation: NONE; Method: PREINCUBATION
From the text: The CCRIS database contains chemical records with carcinogenicity, mutagenicity, tumor promotion, and tumor inhibition test results. It was developed by the National Cancer Institute (NCI). Data are derived from studies cited in primary journals, current awareness tools, NCI reports, and other sources. Test results have been reviewed by experts in carcinogenesis and mutagenesis. CCRIS provides historical information from the years 1985 - 2011. It is no longer updated. […]
Calls of active or inactive are those of the source. How the calls were made is not given here.
Outcomes you can answer with include only these: active, inactive

Answered cases to consult:
Compound	Classification
O=C(Cl)CCc1ccccc1	active
CC(C)=CCC/C(C)=C/C=O	inactive

What was the test verdict on CNCCO ? inactive

# outcome recorded in this test, key = Cc1ccc2c(c1N)C(=O)c1ccccc1C2=O inactive

// param item: CN(C)C(=O)Nc1cccc(C(F)(F)F)c1 ; yields the recorded call inactive

Assay outcome for COC(=O)[C@@H](C)Cl : what was it? active

Call for entry NCc1ccc(CN)cc1 : inactive

====

Tested on: CCRIS mutagenicity, Ames/micronucleus/aberration tests
Experiment: CCRIS mutagenicity studies
Conditions: Test System: AMES SALMONELLA TYPHIMURIUM; Strain/Indicator: TA98; Metabolic Activation: NONE; Method: STANDARD PLATE
Calls of active or inactive are those of the source. No rule for the calls is given here.
One label from this list, please: active, inactive

Solved cases (5 shown):
Entry smiles	Classification
O=Nn1cc(CCO)c2ccccc21	active
COc1c2c(cc3oc4c(CCC(C)(C)O)ccc(O)c4c(=O)c13)O[C@H]1OC=C[C@@H]21	active
O=[N+]([O-])c1c2c(cc3ccccc13)C=C[C@@H](O)[C@@H]2O	inactive
COc1cccc2c1C(=O)c1c(O)c3c(c(O)c1C2=O)C[C@@](O)(C(C)=NNC(=O)c1ccccc1)C[C@@H]3O[C@H]1C[C@H](N)[C@H](O)[C@H](C)O1	active
O=C(O)/C(Cl)=C(\C(=O)O)C(Cl)Cl	inactive

Please indicate how the test categorized OC[C@H]1O[C@@H](n2cnc3c(NO)ncnc32)[C@H](O)[C@@H]1O . active

What did the test return for O=[N+]([O-])c1cc([N+](=O)[O-])c2c3c(c4cccc5ccc1c2c54)CCCC3 ? active

====

Tested on: CCRIS mutagenicity, Ames/micronucleus/aberration tests
Experiment: CCRIS mutagenicity studies
Conditions: Test System: AMES SALMONELLA TYPHIMURIUM; Strain/Indicator: TA100; Metabolic Activation: RAT, LIVER, S-9, AROCLOR 1254; Method: STANDARD PLATE
From the text: The CCRIS database contains chemical records with carcinogenicity, mutagenicity, tumor promotion, and tumor inhibition test results. It was developed by the National Cancer Institute (NCI). Data are derived from studies cited in primary journals, current awareness tools, NCI reports, and other sources. Test results have been reviewed by experts in carcinogenesis and mutagenesis. CCRIS provides historical information from the years 1985 - 2011. It is no longer updated. […]
The source made the active and inactive calls. The rule behind the calls is not given here.
Your response should consist of one outcome taken from active, inactive

Solved cases (2 shown):
Compound	Classification
CC(=O)O[C@]1(C(C)=O)CC[C@H]2[C@@H]3C4OC4(Cl)C4=CC(=O)[C@@H]5C[C@@H]5[C@]4(C)[C@H]3CC[C@@]21C (stereo partly specified)	inactive
COP(=S)(OC)Oc1ccc([N+](=O)[O-])c(C)c1	inactive

Tell me the assay call for CC(CN1CC(=O)NC(=O)C1)N1CC(=O)NC(=O)C1 (stereo unspecified) please. inactive

Which result was noted for this compound in the test: C/C=C/c1cc(OC)c(OC)cc1OC inactive

Please let me know the test result on file for c1ccc2cnncc2c1 . inactive

What did the test return for O=C(O)CCCC[C@@H]1SC[C@@H]2NC(=O)N[C@@H]21 ? inactive

Just curious, what result did C=COC(C)=O get here? inactive

Could you kindly confirm the outcome this assay logged for OC1C=Cc2c(ccc3ccccc23)C1O (stereo unspecified) ? active
